All values here come from patent US20100160369A1.

Biological target: S1P1 (Homo sapiens)
Sequence (P21453 whole entry): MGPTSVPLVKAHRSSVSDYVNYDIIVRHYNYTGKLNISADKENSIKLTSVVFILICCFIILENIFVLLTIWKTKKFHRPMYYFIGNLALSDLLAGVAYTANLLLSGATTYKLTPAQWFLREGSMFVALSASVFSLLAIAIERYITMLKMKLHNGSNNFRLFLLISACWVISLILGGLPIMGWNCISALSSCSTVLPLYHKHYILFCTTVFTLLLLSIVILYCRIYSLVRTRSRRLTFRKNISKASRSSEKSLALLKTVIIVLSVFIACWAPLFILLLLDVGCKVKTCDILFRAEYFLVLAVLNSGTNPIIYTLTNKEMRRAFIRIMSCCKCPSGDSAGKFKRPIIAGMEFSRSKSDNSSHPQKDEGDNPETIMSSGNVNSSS
Experiment: CNG cAMP Assay (Assay 1)
Format: cell-based
Set-up: host or cells: HEK293 cells expressing the CNG channel
Settings: read-out: Assay 1 EC50
Listing of entries alongside the reported EC50.

Would you mind telling me what EC50 value was observed for OC[C@H]1C[C@H](Oc2ccc(-c3noc(-c4cn5cc(C(F)(F)F)cc(Cl)c5n4)n3)c(Cl)c2)CN1 [Example 84] ?
100 to 500 nM

Thanks! And O=C(O)C1CN(Cc2ccc(-c3noc(-c4cn5cc(C(F)(F)F)cc(Cl)c5n4)n3)cc2Cl)C1 [Example 127] ?
100 to 500 nM
